Quick list: CC50 at 48 h per entry.
- method.summary: in vitro
- settings: chlorocebus sabaeus, Vero E6 (Vero C1008) cells, pCC50
Lab book: enter the figure in µM, no units written.

Answered examples (5):
molecule: CN1CCC(c2cc3cc(Cl)ccc3o2)CC1
reported.measurement: 34.7
//
molecule: COc1cc2c(N3CCN(C(=O)Nc4ccc(OC(C)C)cc4)CC3)ncnc2cc1OCCCN1CCCCC1
reported.measurement: 11.5
//
molecule: COc1cc(/C=C/C(=O)CC(=O)/C=C/c2ccc(O)c(OC)c2)ccc1O
reported.measurement: 14.8
//
molecule: N#Cc1ccc2c(c1)N(CCCN1CCC(O)CC1)c1ccccc1S2
reported.measurement: 12.6
//
molecule: CN1C2CCC1CC(OC(c1ccccc1)c1ccc(Cl)cc1)C2 (centres undefined)
reported.measurement: 8.13

Please look up its CC50 at 48 h: "CNCCC=C1c2ccccc2C=Cc2ccccc21"
23.4

Can you check "CCCCN(CCCC)CCCOc1ccc(C(=O)c2c(CC)cc3ccccn23)cc1" next?
6.61
